These data points were gathered from patent US11839613B2.

# measurement target: PTGER2 (EP2) (Homo sapiens (Human))
# Sequence (P43116 whole entry): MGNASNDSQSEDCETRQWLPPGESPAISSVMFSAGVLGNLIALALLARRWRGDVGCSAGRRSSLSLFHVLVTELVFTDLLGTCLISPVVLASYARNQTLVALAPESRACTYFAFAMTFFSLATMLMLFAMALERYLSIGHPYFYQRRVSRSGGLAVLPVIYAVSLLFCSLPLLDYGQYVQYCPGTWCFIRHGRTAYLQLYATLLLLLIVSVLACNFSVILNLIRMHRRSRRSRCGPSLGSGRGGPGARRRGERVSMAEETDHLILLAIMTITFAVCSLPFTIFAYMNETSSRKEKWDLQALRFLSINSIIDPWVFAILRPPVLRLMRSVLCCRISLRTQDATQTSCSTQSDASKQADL
# assay comment: hEP2 b-arrestin assay (PathHunter HEK 293 PTGER2 b-arrestin cells)
# assay context: antagonistic activity, beta-arrestin assay; read-out: hEP2 b-arr IC50
measurement label: IC50 (nM)

See these solved cases before continuing.
CCSc1cc(-c2cc(NCCc3cc(F)c4sccc4c3)ncn2)ccc1C(=O)O :: 211
CCOc1cc(-c2cc(NCCc3cc4c(cc3OC)OCCO4)ncn2)sc1C(=O)O :: 19
CCOc1cc(-c2cc(NCCc3ccc4ccccc4c3C)ncn2)sc1C(=O)NS(N)(=O)=O :: 41

P. CCCc1cc(-c2cc(NCCc3cc(F)c4sccc4c3)ncn2)ccc1C(=O)NCCO
Q. COc1c(CCNc2cc(-c3ccc(C(=O)O)c(SC)c3)ncn2)cc2ccsc2c1F
R. COc1cc2c(cc1CCNc1cc(-c3ccc(C(=O)O)c(OC4CC4)c3)ncn1)OCCO2
S. CCCc1cc(-c2cc(NCCc3cc4c(cc3OC)OCCO4)ncn2)ccc1CC(=O)O
T. CCCc1cc(-c2cc(NCCc3cc(F)c4sccc4c3)ncn2)cc(OCC)c1C(=O)O
Request: Place the items in sequence of falling IC50. Answer format: list of labels, ordered as asked.
Response: T, P, S, R, Q

1. CCOc1cc(-c2cc(NCCc3ccc4ccccc4c3C)ncn2)ccc1Cc1noc(=S)[nH]1
2. CCCOc1cc(-c2cc(NCCc3ccc4sccc4c3F)ncn2)ccc1CC(=O)O
Request: Please indicate which item has the smaller measured IC50: 1 versus 2 Your answer should be the label attached to the chosen record.
Response: 2

----------
# measurement target: PTGER4 (EP4) (Homo sapiens (Human))
# assay comment: cell-based
measurement label: IC50 (µM)

CSc1cc(-c2cc(NCCc3ccc4c(c3)CCCO4)ncn2)ccc1C(=O)O :: 0.417

I. CCOc1cc(-c2cc(NCCc3cc(F)c4sccc4c3)ncn2)ccc1-c1cc(O)no1
II. CCOc1cc(-c2cc(NCCc3ccc4ccccc4c3C)ncn2)ccc1Cc1noc(=O)[nH]1
Request: Please indicate which item has the smaller measured IC50: I versus II Your answer should be the label attached to the chosen record.
Response: I
(I: 0.063 µM, II: 0.159 µM)

1. Cc1cc(-c2cc(NCCc3cc(F)c4sccc4c3)ncn2)cc(C)c1O
2. CCCc1cc(-c2cc(NCCc3c(OC)cc4c(c3C)OCCO4)ncn2)ccc1CC(=O)O
Request: Please indicate which item has the smaller measured IC50: 1 versus 2 Your answer should be the label attached to the chosen record.
Response: 2

1. COc1cc2ccsc2cc1CCNc1cc(-c2ccc(C(=O)O)c(SC)c2)ncn1
2. CCOc1cc2c(cc1CCNc1cc(-c3ccc(CC(=O)O)c(CC(C)C)c3)ncn1)OCCO2
3. CCCc1cc(-c2cc(NCCc3cc(F)c4scc(Cl)c4c3)ncn2)ccc1CC(=O)O
Request: Place the items in sequence of falling IC50. Answer format: list of labels, ordered as asked.
Response: 3, 1, 2
(3: 0.808 µM, 1: 0.352 µM, 2: 0.04 µM)

----------
# measurement target: EP4 (Homo sapiens (Human))
# Sequence (P35408 whole entry): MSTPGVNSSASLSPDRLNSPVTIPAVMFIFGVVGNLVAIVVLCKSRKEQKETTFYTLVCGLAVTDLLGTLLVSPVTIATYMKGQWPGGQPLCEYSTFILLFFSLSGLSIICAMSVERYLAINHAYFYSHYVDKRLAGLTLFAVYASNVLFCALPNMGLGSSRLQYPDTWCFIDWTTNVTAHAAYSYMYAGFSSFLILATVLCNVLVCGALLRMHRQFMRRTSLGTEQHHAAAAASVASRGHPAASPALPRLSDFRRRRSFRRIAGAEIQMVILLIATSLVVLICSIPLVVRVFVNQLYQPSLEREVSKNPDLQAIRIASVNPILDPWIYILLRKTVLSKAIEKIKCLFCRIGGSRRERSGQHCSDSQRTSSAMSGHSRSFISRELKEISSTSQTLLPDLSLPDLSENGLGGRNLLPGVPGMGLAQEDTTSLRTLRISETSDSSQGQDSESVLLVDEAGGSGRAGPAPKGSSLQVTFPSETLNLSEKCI
# assay comment: hEP4 cAMP assay (BT549 breast cancer cells, HTRF cAMP)
# Format: cell-based
# assay context: antagonistic activity, PGE2 6 nM
pIC50: −log10 of the molar value.
measurement label: pIC50

See these solved cases before continuing.
COc1cc2c(cc1CCNc1cc(-c3ccc4c(C(=O)O)coc4c3)ncn1)OCCO2 :: 6.86
CCSc1cc(-c2cc(NCCc3ccc4sccc4c3)ncn2)ccc1C(=O)O :: 6.54

a. O=C(O)c1ccc(-c2cc(NCCc3ccc4c(c3)OCC4)ncn2)cc1OC1CCC1
b. CCOc1cc(-c2cc(NCCc3c(OC)cc4occc4c3C)ncn2)sc1C(=O)O
c. CCOc1cc(-c2cc(NCCc3cc4c(cc3OC)OCCO4)ncn2)sc1C(=O)O
Request: List by increasing pIC50. Answer format: list of labels, ordered as asked.
Response: a, c, b

----------
# measurement target: PTGER4 (EP4) (Homo sapiens (Human))
# assay comment: cell-based
pIC50: −log10 of the molar value.
measurement label: pIC50

See these solved cases before continuing.
CCCc1cc(-c2cc(NCCc3ccc4scc(Cl)c4c3)ncn2)ccc1CC(=O)O [Example 498] :: 6.97
CCOc1cc(-c2cc(NCCc3cc4c(cc3OC)OCO4)ncn2)ccc1CC(=O)O [Ex 299] :: 6.44

A. O=C(O)C1Cc2cc(-c3cc(NCCc4ccc5sccc5c4)ncn3)ccc2O1 (racemic) [Example 474]
B. COc1cc2c(c(C)c1CCNc1cc(-c3ccc(CC(=O)O)c(OC(F)(F)F)c3)ncn1)OCCO2 [Example 428]
Request: Between the entries labelled A and B , which has a larger pIC50 value on record? Your answer should be the label attached to the chosen record.
Response: B
(B: 7.39, A: 6.04)

----------
# measurement target: UniProt:P35408
# assay comment: cell-based
measurement label: IC50 (nM)

See these solved cases before continuing.
CN1CCCc2cc(CCNc3cc(-c4cc(C(F)(F)F)c(C(=O)O)s4)ncn3)c(F)cc21 [Ex 72] :: 37
CCOc1cc(-c2cc(NCCc3cc4occc4cc3OC)ncn2)ccc1OCC(=O)O [Ex 159] :: 140
CN1C(=O)NCc2ccc(-c3cc(NCCc4cc(F)c5sccc5c4)ncn3)cc21 [Example 530] :: 44
CCOc1cc2c(cc1CCNc1cc(-c3ccc(CC(=O)O)c(OC(F)F)c3)ncn1)OCCO2 [Example 510] :: 194
CCCc1cc(-c2cc(NCCc3c(OC)cc4c(c3F)OCCO4)ncn2)ccc1CC(=O)O [Example 408] :: 24
COc1cc2occc2cc1CCNc1cc(-c2ccc(C(=O)O)c(SC)c2)ncn1 [Ex 193] :: 349

a. CCc1cc(-c2cc(NCCc3ccc4c(c3C)OCCO4)ncn2)ccc1CC(=O)O [Example 513]
b. Cc1c(CCNc2cc(-c3ccc(C(=O)O)c(OC4CCC4)c3)ncn2)ccc2ccccc12 [Ex 168]
c. CCOc1cc(-c2cc(NCCc3ccc4sccc4c3F)ncn2)ccc1OCCC(=O)O [Example 421]
d. COc1cc2ccoc2cc1CCNc1cc(-c2ccc(C(=O)O)c(OC3CCC3)c2)ncn1 [Ex 124]
e. CCOc1nc(-c2cc(NCCc3ccc4ccccc4c3C)ncn2)sc1-c1noc(=O)[nH]1 [Example 352]
Request: List by increasing IC50. Answer format: list of labels, ordered as asked.
Response: e, c, b, d, a

----------
# measurement target: PTGER4 (EP4) (Homo sapiens (Human), UniProt P35408)
# Sequence (P35408 whole entry): as above
# assay comment: cell-based
measurement label: IC50 (nM)

CCOc1cc(-c2cc(NCCc3c(OCC)cc4ccccc4c3F)ncn2)ccc1C(=O)O :: 31

P. CCCc1cc(-c2cc(NCCc3ccc4sccc4c3F)ncn2)ccc1CC(=O)O
Q. CCOc1cc(-c2cc(NCCc3ccc4ccsc4c3C)ncn2)sc1C(=O)O
R. CCOc1cc(-c2cc(NCCc3ccc4c(c3)c(C)cn4C)ncn2)sc1C(=O)O
S. CCOc1cc(-c2cc(NCCc3cc4ccoc4cc3F)ncn2)ccc1OCC(=O)O
T. CCOc1cc(-c2cc(NCCc3cc(F)c4sccc4c3)ncn2)ccc1C(N)=O
Request: Place the items in sequence of falling IC50. Answer format: list of labels, ordered as asked.
Response: S, T, R, P, Q
(S: 180 nM, T: 121 nM, R: 42 nM, P: 28 nM, Q: 13 nM)

A. CCOc1cc(-c2cc(NCCc3c(OC)cc4c(c3C)OCCO4)ncn2)ccc1CC(=O)O
B. O=C(O)Cc1ccc(-c2cc(NCCc3cc(F)c4sccc4c3)ncn2)cc1OC(F)F
Request: Please indicate which item has the smaller measured IC50: A versus B Your answer should be the label attached to the chosen record.
Response: A

----------
# measurement target: EP2 (Homo sapiens (Human))
# Sequence (P43116 whole entry): as the sequence (P43116 whole entry) above
# assay comment: hEP2 cAMP assay (SF295 glioblastoma cells, HTRF cAMP)
# assay context: antagonistic activity
measurement label: IC50 (µM)

See these solved cases before continuing.
CCOc1cc(-c2cc(NCCc3ccc4c(c3)COC4)ncn2)sc1C(=O)O :: 0.149
COc1cc2ccoc2cc1CCNc1cc(-c2ccc(C(=O)O)c(OC3CCC3)c2)ncn1 :: 0.095
NC(=O)c1ccc(-c2cc(NCCc3ccc4cc[nH]c4c3)ncn2)s1 :: 0.786
Cc1cc2c(cc1CCNc1cc(-c3ccc(C(=O)O)c(OC4CCC4)c3)ncn1)OC=CO2 :: 0.085
CSc1cc(-c2cc(NCCc3ccc4sccc4c3C)ncn2)ccc1C(=O)O :: 0.029
CCOc1cc(-c2cc(NCCc3ccc4scnc4c3)ncn2)sc1C(=O)O :: 0.064
CCOc1cc(-c2cc(NCCc3cc4ccsc4cc3C)ncn2)sc1C(=O)O :: 0.008
O=C(O)c1ccc(-c2cc(NCCc3cc(Cl)c4c(c3)OCCO4)ncn2)cc1OC1CCC1 :: 0.534
CCCCOc1cc(-c2cc(NCCc3ccc4ccccc4c3C)ncn2)ccc1C(=O)O :: 0.125
O=C(O)c1ccc(-c2cc(NCCc3ccc4sccc4c3)ncn2)cc1OC1CCC1 :: 0.129

P. CCOc1cc(-c2cc(NCCc3cc4c(cc3OC)OCO4)ncn2)ccc1C(=O)O
Q. CCOc1cc(-c2cc(NCCc3ccc4c(c3)CCO4)ncn2)sc1C(=O)O
Request: Between the entries labelled P and Q , which has a larger IC50 value on record? Your answer should be the label attached to the chosen record.
Response: Q
(Q: 0.222 µM, P: 0.073 µM)
